# System: MS2 coat protein
# assay name: apparent KD of MS2 coat protein; designed switch direction (-1 OFF switch, 1 ON switch): -1; higher = weaker reporter binding
# condition summary: input ligand: none
// reported apparent KD of MS2 coat protein per item
Entry rule: numbers only, all in nM.

residue_string="AUGAUAUAACAGGAUAUUUGGCGCGGAUGCAGAGAAGAAGGGUUGACAUGAGGAUCACCCAUGUGAUCCUUCAA [Eternabot (L1) Solution 18] (Eterna round: R97, puzzle: Exclusion 6)" recorded_value=14.3

GET /values?readout=apparent KD of MS2 coat protein&item= AUCGUGUGAGGAUAUCGAUUAUGGAAGUCUAGGUCCAUACGCGAGAAGGCACAUGAGGAUCACCCAUGUAAUGG [jl-ex4-4.32 ViennaUCT mod] (Eterna round: R97, puzzle: Exclusion 4)
486

GET /values?readout=apparent KD of MS2 coat protein&item= ACAUGAGGAUCACCCAUGUCAGGCGGGUCCUCUCCGGCUGUUGAGGAUAUAGUCCGGUAUCCGCGCUAGAAGGUGAGGGCCGGC [Aenatbe mod 18] (Eterna round: R96, puzzle: Exclusion NG 3)
20.2

Sourced from the supplement of paper PMC9170038
